Tested on: CP268
METHOD_DESCRIPTION: qHTS profiling for inhibitors of Plasmodium falciparum proliferation (AID 504749); also: nearly all actives have a fitted effect of over 60% in size
ASSAY_SETUP: P. falciparum in erythrocytes, SYBR Green DNA, 72 h; series mostly up to 28.7 µM
Results filed as inconclusive are left out. Activity calls are given as the source filed them. Calls follow the shape of the dose curve; as a rule, active = well fitted inhibition curve with a large enough effect; inconclusive = small, poorly fitted or top-dose-only effect; inactive = flat fitted curve, though single readings scatter.
Hello, when you answer, please use one of the following outcomes: active, inactive

Answered cases to consult:
[
  {
    "MOLECULE": "CC(C)(O)C1C2OC(=O)C1C1(O)CC3OC34C(=O)OC2C14C (centres undefined)",
    "ASSIGNED_CATEGORY": "inactive"
  },
  {
    "MOLECULE": "N#CN",
    "ASSIGNED_CATEGORY": "inactive"
  },
  {
    "MOLECULE": "CCCC(C)(COC(N)=O)COC(=O)NC1CC1 (centres undefined)",
    "ASSIGNED_CATEGORY": "inactive"
  },
  {
    "MOLECULE": "C[CH2][Hg][S]c1ccccc1C(=O)O",
    "ASSIGNED_CATEGORY": "active"
  },
  {
    "MOLECULE": "COc1ccc(OC)c(C(O)C(C)N)c1 (centres undefined)",
    "ASSIGNED_CATEGORY": "inactive"
  },
  {
    "MOLECULE": "[N-]=[N+]=CC(=O)OCC(N)C(=O)O (centres undefined)",
    "ASSIGNED_CATEGORY": "inactive"
  },
  {
    "MOLECULE": "CCON=O",
    "ASSIGNED_CATEGORY": "inactive"
  },
  {
    "MOLECULE": "c1ccc2cc(CC3=NCCN3)ccc2c1",
    "ASSIGNED_CATEGORY": "inactive"
  },
  {
    "MOLECULE": "CCCCCCCCCC(=O)O[C@H]1CC[C@H]2[C@@H]3CCC4=CC(=O)CC[C@]4(C)[C@H]3CC[C@]12C",
    "ASSIGNED_CATEGORY": "inactive"
  },
  {
    "MOLECULE": "O=[N+]([O-])c1cc(I)c(O)c(I)c1",
    "ASSIGNED_CATEGORY": "inactive"
  }
]

Consider the additional molecule presented here.
# outcome recorded in this test, key = CCC(C)(S(=O)(=O)CC)S(=O)(=O)CC
inactive
